- Test system: 945468-187-T-J2-PDC spheroids viability
- Measurement Description: Anticancer human tumor 945468-187-T-J2-PDC patient-derived rectal carcinoma cell line growth inhibition [PI3K]; active means viability on the fitted dose curve at most 10% of control; inactive means the rest
- Setup Conditions: second compound 0.0316 µM; first compound 10 µM; spheroids with HUVEC and MSC
Entry note: the call must match one of active, inactive

| Compound | Label |
| --- | --- |
| Cn1nccc1Nc1nccc(-c2ccn(C(CO)c3ccc(Cl)c(F)c3)c(=O)c2)n1 (stereo not given) + CC(Nc1ncnc2nc[nH]c12)c1cc2cccc(Cl)c2c(=O)n1-c1ccccc1 | inactive |
| C=CC(=O)N1CCN(c2nc(=O)n(-c3c(C)ccnc3C(C)C)c3nc(-c4c(O)cccc4F)c(F)cc23)C(C)C1 (stereo not given) + CC(Nc1ccc2c(c1)OCCn1cc(N3C(=O)OCC3C(F)F)nc1-2)C(N)=O | inactive |
| CC1(C)CCC(CN2CCN(c3ccc(C(=O)NS(=O)(=O)c4ccc(NCC5CCOCC5)c([N+](=O)[O-])c4)c(Oc4cnc5[nH]ccc5c4)c3)CC2)=C(c2ccc(Cl)cc2)C1 + COc1c(OCCCN2CCOCC2)ccc2c3n(c(=NC(=O)c4cnc(N)nc4)nc12)CCN3 | inactive |
| CCCS(=O)(=O)Nc1ccc(F)c(C(=O)c2c[nH]c3ncc(-c4ccc(Cl)cc4)cc23)c1F + Cc1nc(NC(=O)N2CCCC2C(N)=O)sc1-c1ccnc(C(C)(C)C(F)(F)F)c1 | active |

Query compound follows.
Input: Lab log entry: Cn1ncc(Cl)c1-c1cc(C(=O)NC(CN)Cc2cccc(F)c2)sc1Cl (stereo not given) + CC(Nc1ccc2c(c1)OCCn1cc(N3C(=O)OCC3C(F)F)nc1-2)C(N)=O — outcome as called in the assay?
Output: inactive

----------
- System: 945468-187-T-J2-PDC spheroids viability
- Measurement Description: Anticancer human tumor 945468-187-T-J2-PDC cell line growth inhibition [PI3K];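 further: spheroids exposed to compounds for seven days before reading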
- Setup Conditions: second compound 0.0316 µM; first compound 1 µM; hits give low values; spheroids with HUVEC and MSC
Listed below: viability, T/C values for each entry.
Provide only the numeric value, understood in %.

For reference, reported viability, T/C for C[C@@H](NC(=O)c1ncnc(N)c1Cl)c1ncc(C(=O)Nc2cc(C(F)(F)F)c(Cl)cn2)s1 + Cc1nc(NC(=O)N2CCCC2C(N)=O)sc1-c1ccnc(C(C)(C)C(F)(F)F)c1 stands at 91.5

For reference, reported viability, T/C for C=CC(=O)N1CCN(c2nc(=O)n(-c3c(C)ccnc3C(C)C)c3nc(-c4c(O)cccc4F)c(F)cc23)C(C)C1 (stereo not given) + Cc1nc(NC(=O)N2CCCC2C(N)=O)sc1-c1ccnc(C(C)(C)C(F)(F)F)c1 stands at 90.1

For reference, reported viability, T/C for C=CC(=O)N1CCN(c2nc(=O)n(-c3c(C)ccnc3C(C)C)c3nc(-c4c(O)cccc4F)c(F)cc23)C(C)C1 (stereo not given) + CC(Nc1ccc2c(c1)OCCn1cc(N3C(=O)OCC3C(F)F)nc1-2)C(N)=O stands at 116

For reference, reported viability, T/C for CCN1CCN(Cc2ccc(Nc3ncc(F)c(-c4cc(F)c5nc(C)n(C(C)C)c5c4)n3)nc2)CC1 + CC(Nc1ncnc2nc[nH]c12)c1cc2cccc(Cl)c2c(=O)n1-c1ccccc1 stands at 79.7

For reference, reported viability, T/C for CCCS(=O)(=O)Nc1ccc(F)c(C(=O)c2c[nH]c3ncc(-c4ccc(Cl)cc4)cc23)c1F + CC(Nc1ccc2c(c1)OCCn1cc(N3C(=O)OCC3C(F)F)nc1-2)C(N)=O stands at 92.1
